target: human P2X7 (Homo sapiens (Human))
Sequence (Q99572 whole entry): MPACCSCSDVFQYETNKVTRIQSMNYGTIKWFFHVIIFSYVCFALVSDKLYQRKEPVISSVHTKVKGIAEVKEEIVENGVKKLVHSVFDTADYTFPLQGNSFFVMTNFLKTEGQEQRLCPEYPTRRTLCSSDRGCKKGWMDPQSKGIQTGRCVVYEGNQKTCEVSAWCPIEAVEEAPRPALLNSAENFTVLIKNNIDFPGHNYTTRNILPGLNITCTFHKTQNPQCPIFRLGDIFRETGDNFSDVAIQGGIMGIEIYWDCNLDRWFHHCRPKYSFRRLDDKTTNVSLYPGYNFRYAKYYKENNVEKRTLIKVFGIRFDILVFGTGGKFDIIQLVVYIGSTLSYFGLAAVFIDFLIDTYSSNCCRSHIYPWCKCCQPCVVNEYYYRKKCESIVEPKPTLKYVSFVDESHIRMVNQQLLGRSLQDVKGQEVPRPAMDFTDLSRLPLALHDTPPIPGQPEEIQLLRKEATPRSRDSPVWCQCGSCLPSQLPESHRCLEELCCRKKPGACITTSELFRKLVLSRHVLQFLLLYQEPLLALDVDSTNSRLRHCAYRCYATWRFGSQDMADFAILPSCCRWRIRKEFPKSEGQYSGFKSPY
measurementDescription: P2X7 antagonism in human PBMCs (IL-1β release after LPS + Bz-ATP, ELISA)
Assay type: cell-based
conditionLabel: human PBMCs, test compound 10 μM
measuredQuantity: PBMC 10 μM (% control)
// units = % control; emit number, no label

molecule: O=C(c1ccc(Cl)cc1F)N1CCc2c(nnn2-c2ncccn2)C1
resultUnit: % control
PBMC 10 μM (% control): 3.4
--
molecule: Cc1nc2c(n1-c1ccccc1)CCN(C(=O)c1cccc(Cl)c1Cl)C2
resultUnit: % control
PBMC 10 μM (% control): −11.0
--
molecule: CC1c2nnn(-c3ncc[nH]3)c2CCN1C(=O)c1cccc(Cl)c1Cl (stereo not shown)
resultUnit: % control
PBMC 10 μM (% control): −6.3
--
molecule: O=C(c1cccc(Cl)c1Cl)N1CCc2c(-c3ccncc3)n[nH]c2C1
resultUnit: % control
PBMC 10 μM (% control): −3.3

What reported PBMC 10 μM (% control) corresponds to Cc1cccc(-n2nnc3c2CCN(C(=O)c2cccc(C(F)(F)F)c2Cl)C3C)n1 (stereo not shown) on human P2X7 (Homo sapiens (Human))?
−2.8
